Entries and their IC50 values follow.
- measurement target: mGlyT-1b (Mus musculus, UniProt P28571)
- Construct: host or cells: Flp-in-CHO
- Sequence (P28571 1-651 isoform P28571-2): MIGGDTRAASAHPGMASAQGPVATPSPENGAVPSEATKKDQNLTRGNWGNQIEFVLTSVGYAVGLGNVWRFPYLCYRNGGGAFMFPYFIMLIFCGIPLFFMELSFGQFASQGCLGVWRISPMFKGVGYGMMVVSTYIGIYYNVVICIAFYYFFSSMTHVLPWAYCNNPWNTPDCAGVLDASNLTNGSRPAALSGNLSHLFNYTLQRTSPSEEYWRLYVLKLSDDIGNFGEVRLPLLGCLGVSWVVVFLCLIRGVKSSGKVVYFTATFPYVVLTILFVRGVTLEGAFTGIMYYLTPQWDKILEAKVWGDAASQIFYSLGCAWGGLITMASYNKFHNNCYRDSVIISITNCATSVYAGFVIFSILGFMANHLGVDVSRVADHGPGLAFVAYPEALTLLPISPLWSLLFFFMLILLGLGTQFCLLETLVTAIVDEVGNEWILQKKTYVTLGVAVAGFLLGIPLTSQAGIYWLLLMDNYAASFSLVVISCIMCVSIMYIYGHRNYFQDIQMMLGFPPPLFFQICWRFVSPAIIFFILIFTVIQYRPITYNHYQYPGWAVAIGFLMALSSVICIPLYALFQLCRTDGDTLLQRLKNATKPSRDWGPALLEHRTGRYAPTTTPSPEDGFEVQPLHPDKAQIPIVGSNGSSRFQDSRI
- measurement notes: Glycine uptake inhibition assay (mGlyT-1b), [3H]-glycine uptake in Flp-in-CHO cells
- Format: cell-based
- test context: Flp-in-CHO cells stably transfected with mGlyT1b cDNA, 20 min at 22° C. preincubation
readout type: IC50 (µM)

compound	measurement target	readout type	recorded measurement
O=C(NC(c1ccccc1)C1(N2CCCC2)CCC1)c1ccc(C(F)(F)F)cc1-c1ccccc1 (stereo not shown) [Example 67]	mGlyT-1b (Mus musculus, UniProt P28571)	IC50	0.0562
COc1cc(C(F)(F)F)cc(SC)c1C(=O)NC(c1ccccc1)C1(N2CCCC2)CC1 (stereo not shown) [Example 10]	mGlyT-1b (Mus musculus, UniProt P28571)	IC50	0.0253
COc1cc(C(F)(F)F)cc(SC)c1C(=O)NC(c1ccc(Cl)cc1)C1(N2CCCC2)CCC1 (stereo not shown) [Example 39]	mGlyT-1b (Mus musculus, UniProt P28571)	IC50	0.0211
CSc1cc(C(F)(F)F)cc(C(F)(F)F)c1C(=O)NC(c1ccccc1)C1(N2CCCC2)CC1 (stereo not shown) [Example 6]	mGlyT-1b (Mus musculus, UniProt P28571)	IC50	0.0683
CSc1cc(C(F)(F)F)ccc1C(=O)NC(c1ccccc1)C1(N2CCCCC2)CCC1 (stereo not shown) [Example 48]	mGlyT-1b (Mus musculus, UniProt P28571)	IC50	0.0275
COc1cc(C(F)(F)F)cc(SC)c1C(=O)NC(c1ccccc1)C1(N2CCSCC2)CCC1 (stereo not shown) [Example 66]	mGlyT-1b (Mus musculus, UniProt P28571)	IC50	0.0915
COc1cc(C(F)(F)F)cc(SC)c1C(=O)NC(c1ccccc1)C1(N(C)C)CCC1 (stereo not shown) [Example 51]	mGlyT-1b (Mus musculus, UniProt P28571)	IC50	0.0142
COc1cc(C(F)(F)F)cc(SC)c1C(=O)NC(c1cc(F)cc(F)c1)C1(N2CCCC2)CCC1 (stereo not shown) [Example 53]	mGlyT-1b (Mus musculus, UniProt P28571)	IC50	0.0141
COc1cc(C(F)(F)F)cc(SC)c1C(=O)NC(c1ccc(F)cc1)C1(N2CCCC2)CCC1 (stereo not shown) [Example 38]	mGlyT-1b (Mus musculus, UniProt P28571)	IC50	0.0175
COc1cc(C(F)(F)F)cc(SC)c1C(=O)NC(c1ccccc1)C1(N2CCCCC2)CCC1 (stereo not shown) [Example 49]	mGlyT-1b (Mus musculus, UniProt P28571)	IC50	0.0237
CSc1cc(C(F)(F)F)cc(C(F)(F)F)c1C(=O)NC(c1ccccc1)C1(N2CCCC2)CCC1 (single isomer, unassigned; (-)) [Example 31]	mGlyT-1b (Mus musculus, UniProt P28571)	IC50	0.0181
COc1cc(C(F)(F)F)cc(SC)c1C(=O)NC(c1ccccc1)C1(N2CC3(COC3)C2)CCC1 (stereo not shown) [Example 75]	mGlyT-1b (Mus musculus, UniProt P28571)	IC50	0.0261
CCc1cc(C(F)(F)F)ccc1C(=O)NC(c1ccccc1)C1(N2CCCC2)CCC1 (stereo not shown) [Example 68]	mGlyT-1b (Mus musculus, UniProt P28571)	IC50	0.0091
CSc1cc(C(F)(F)F)ccc1C(=O)NC(c1ccc(F)cc1)C1(N2CCCC2)CCC1 (stereo not shown) [Example 24]	mGlyT-1b (Mus musculus, UniProt P28571)	IC50	0.02
CSc1cc(C(F)(F)F)ccc1C(=O)NC(c1ccc(Cl)cc1)C1(N2CCCC2)CCC1 (stereo not shown) [Example 36]	mGlyT-1b (Mus musculus, UniProt P28571)	IC50	0.0597
O=C(NC(c1ccccc1)C1(N2CCCC2)CCC1)c1ccc(C(F)(F)F)cc1Br (stereo not shown) [Example 52]	mGlyT-1b (Mus musculus, UniProt P28571)	IC50	0.0127
